test system: HCC-827; assay: relative viability (nuclei count vs DMSO), 5 days (fraction); higher = more cells survive; conditions: first compound 0.3162 µM
Below, each of the compounds is paired with its reported relative viability value.

Below, each entry is followed by its recorded relative viability result.
[[record]]
compound = "NC(=O)Nc1cc(-c2cccc(F)c2)sc1C(=O)N[C@H]1CCCNC1 [AZD7762] + COc1cc2c(Oc3ccc(NC(=O)C4(C(=O)Nc5ccc(F)cc5)CC4)cc3F)ccnc2cc1OCCCN1CCOCC1 [Foretinib] (partner 0.25 µM)"
experimental_endpoint = "relative viability"
assay_result = 1.08

[[record]]
compound = "NC(=O)Nc1cc(-c2cccc(F)c2)sc1C(=O)N[C@H]1CCCNC1 [AZD7762] + N=C(N)NC(=N)NCCc1ccccc1 [Phenformin] (partner 250 µM)"
experimental_endpoint = "relative viability"
assay_result = 0.435


May I ask what relative viability has been recorded for NC(=O)Nc1cc(-c2cccc(F)c2)sc1C(=O)N[C@H]1CCCNC1 [AZD7762] + CS(=O)(=O)CCNCc1ccc(-c2ccc3ncnc(Nc4ccc(OCc5cccc(F)c5)c(Cl)c4)c3c2)o1 [Lapatinib] (partner 2 µM) ? 0.178

Which measured relative viability value corresponds to NC(=O)Nc1cc(-c2cccc(F)c2)sc1C(=O)N[C@H]1CCCNC1 [AZD7762] + CCNC(=O)c1noc(-c2cc(C(C)C)c(O)cc2O)c1-c1ccc(CN2CCOCC2)cc1 [Luminespib] (partner 0.01 µM) ? 0.459

Can you share its relative viability? I mean this compound: NC(=O)Nc1cc(-c2cccc(F)c2)sc1C(=O)N[C@H]1CCCNC1 [AZD7762] + CC(C)C[C@H](NC(=O)[C@H](Cc1ccccc1)NC(=O)c1cnccn1)B(O)O [Bortezomib] (partner 0.002 µM) 1.08

Cited source for all entries: the supplement of paper PMC10307832
